Hi there, I'd appreciate the recorded solubility for every entry that follows.
method_summary: physchem
assay_setup: pH 6.8, aqueous buffer, thermodynamic from solid
Report the figure in µg/mL without appending any unit label.

For record `CC[C@H]1Oc2nc([N+](=O)[O-])cn2C[C@@H]1NCc1ccc(OC(F)(F)F)cc1` the listed solubility is 32

Entry `O=C(CO[C@@H]1COc2nc([N+](=O)[O-])cn2C1)N1CCN(c2ccc(OC(F)(F)F)cc2)CC1` , solubility reported as 28.2

====

method_summary: in vivo
assay_setup: female, CD-1, mouse, po, 50 mg/kg, Lung to Plasma ratio Cmax
Field: Kp. Provide a value for each of the compounds that follow.
Enter a number only.

Form: compound = `O=C(CO[C@@H]1COc2nc([N+](=O)[O-])cn2C1)N1CCN(c2ccc(C(F)(F)F)cn2)CC1` ; Kp = 0.5

`O=C(CO[C@@H]1COc2nc([N+](=O)[O-])cn2C1)N1CCN(c2ccc(OC(F)(F)F)cc2)CC1` has a reported Kp of 0.7
